Hello, the source for this data is patent US20090005415A1, in case you need it.

Where a name gives a salt, the structure may show the parent alone.
property measured: melting point

compound | melting point
Cc1c(C(=O)NN2CCCCC2)nc(-c2ccc(Cl)cc2Cl)n1-c1ccc(OS(=O)(=O)c2cccnc2)cc1 (as salt: hydrochloride) | 205 to 209 °C
CCCS(=O)(=O)Oc1ccc(-n2c(-c3ccc(Cl)cc3Cl)nc(C(=O)NN3CCCCC3)c2C)cc1 (as salt: hydrochloride) | 126 to 133 °C
Cc1c(C(=O)NN2CCCCC2)nc(-c2ccc(Cl)cc2Cl)n1-c1ccc(OS(=O)(=O)c2cccs2)cc1 (as salt: hydrochloride) | 107 to 112 °C
Cc1c(C(=O)NN2CCCCC2)nc(-c2ccc(Cl)cc2Cl)n1-c1ccc(OS(=O)(=O)c2ccc(Cl)s2)cc1 (as salt: hydrochloride) | 112 to 118 °C
Cc1c(C(=O)NN2CCCCC2)nc(-c2ccc(Cl)cc2Cl)n1-c1ccc(OS(=O)(=O)CCC(C)(C)C)cc1 (as salt: hydrochloride) | 152 to 156 °C
Cc1c(C(=O)NN2CCCCC2)nc(-c2ccc(Cl)cc2Cl)n1-c1ccc(OCc2ccccc2)cc1 (as salt: hydrochloride) | 195 to 198 °C
Cc1c(C(=O)NN2CCCCC2)nc(-c2ccc(Cl)cc2Cl)n1-c1ccc(OS(=O)(=O)CCCC(F)(F)F)cc1 (as salt: hydrochloride) | 113 to 118 °C
Cc1c(C(=O)NN2CCCCC2)nc(-c2ccc(Cl)cc2Cl)n1-c1ccc(OS(=O)(=O)CCC(F)(F)F)cc1 (as salt: hydrochloride) | 183 to 186 °C

Now look at this entry.
For reference, reported melting point for CCS(=O)(=O)Oc1ccc(-n2c(-c3ccc(Cl)cc3Cl)nc(C(=O)NN3CCCCC3)c2C)cc1 (as salt: hydrochloride) stands at 94 to 101 °C
